# inhibition annotations
EXPERIMENTAL SYSTEM: Genome polyprotein (Dengue virus type 2 (strain 16681-PDK53)) (UniProt P29991)
ASSAY NOTES: flavivirus cap methylation enzyme inhibition – biochemical, confirmation dose response, primary screen (AID 588689)
EXPERIMENTAL CONDITIONS: Dengue-2 NS5 methyltransferase capping enzyme assay, at 25 µM, hits give high values
The campaign covered roughly 340,000 compounds. About 1,000 (0.29%) were called active. These entries were drawn from the full list. Measured potencies and affinities stand elsewhere.
Numbers only; they are read as %.

Reference set (8 entries):
COMPOUND	MEASURED ENDPOINT	RECORDED NUMBER
CSc1nc(O)c(C(c2ccccc2)c2c(O)nc(SC)[nH]c2=O)c(=O)[nH]1	inhibition	-1.55
C[C@@H]1CN([C@H](C)CO)C(=O)c2cc(NS(=O)(=O)c3cn(C)cn3)ccc2O[C@H]1CN(C)C(=O)Nc1ccccc1	inhibition	-1.59
CSc1nc(O)c(C(c2ccc(C)cc2)c2c(O)nc(SC)[nH]c2=O)c(=O)[nH]1	inhibition	5.27
Cn1cccc1/C=C1\SC(=S)N(CC(=O)O)C1=O	inhibition	-7.69
Cn1cccc1/C=C1/SC(=S)N(CC(=O)O)C1=O	inhibition	3.63
O/N=C/c1cc(Br)ccc1OCc1ccc(F)cc1	inhibition	-7.14
COc1nc(SC)nc(Cl)c1Cc1ccc(OC(C)C)cc1	inhibition	-6.55
O=C(Nc1ccc2c(c1)OCO2)c1n[nH]c(=O)c2ccccc12	inhibition	11.1

Ask: Return value of inhibition for input CCC(C(=O)OCC(=O)N(C)c1c(N)n(Cc2ccccc2)c(=O)[nH]c1=O)c1ccccc1 (stereo unspecified) , no commentary.
Result: -2.91

Ask: Return value of inhibition for input O=C(O)c1ccc(NC(=O)C(c2ccccc2)c2ccccc2)cc1 , no commentary.
Result: -5.43

Ask: Return value of inhibition for input Cc1ccc(-c2cc(C(=O)N3CCC(C)CC3)c3ccccc3n2)cc1 , no commentary.
Result: -0.67

Ask: Return value of inhibition for input C=CCOc1ccc(Oc2cc(C)nc(SC)n2)nn1 , no commentary.
Result: -6.11

Ask: Return value of inhibition for input CC1=C/C(=C(/c2ccc(O)c(C)c2)c2ccccc2S(=O)(=O)O)C=CC1=O , no commentary.
Result: -1.1

----------
EXPERIMENTAL SYSTEM: Genome polyprotein (Dengue virus type 2 (strain 16681-PDK53))
ASSAY NOTES: flavivirus cap methylation enzyme inhibition – biochemical, confirmation dose response, primary screen (AID 588689)
EXPERIMENTAL CONDITIONS: Dengue-2 NS5 methyltransferase capping enzyme assay, at 25 µM, hits give high values
In all, about 340,000 compounds went through this assay and about 1,000 (0.29%) were called active. Not all results are given here. Results with a measured potency or affinity are listed apart.
# inhibition annotations
Numbers only; they are read as %.

Reference set (2 entries):
COMPOUND	inhibition [%]
CC1(C)CC(=O)C(C(C2=C(O)CC(C)(C)CC2=O)c2cccc(O)c2)C(=O)C1 (configuration not stated)	0.68
COC(=O)c1sc2ccccc2c1N	-9.74

Ask: Return value of inhibition for input CC1(C)CC(=O)C(C(C2=C(O)CC(C)(C)CC2=O)c2ccco2)C(=O)C1 (configuration not stated) , no commentary.
Result: -52.5

Ask: Return value of inhibition for input COc1ccc(N=C2SC(C(=O)O)CC(=O)N2C)cc1 (configuration not stated) , no commentary.
Result: 0.68

Ask: Return value of inhibition for input CC1(C)CC(=O)C(C(c2ccco2)C2C(=O)CC(C)(C)CC2=O)C(=O)C1 , no commentary.
Result: 37.4

Ask: Return value of inhibition for input CC1(C)CC(=O)C(C(c2ccncc2)C2C(=O)CC(C)(C)CC2=O)C(=O)C1 , no commentary.
Result: 5.41

Ask: Return value of inhibition for input CN(C1CCCCC1)S(=O)(=O)c1ccc(S(=O)(=O)N2CCN(C(=O)c3ccccc3F)CC2)cc1 , no commentary.
Result: -5.65

----------
EXPERIMENTAL SYSTEM: Genome polyprotein (Dengue virus type 2 (strain 16681-PDK53)) (UniProt P29991)
ASSAY NOTES: flavivirus cap methylation enzyme inhibition – biochemical, confirmation dose response, primary screen (AID 588689)
EXPERIMENTAL CONDITIONS: Dengue-2 NS5 methyltransferase capping enzyme assay, at 25 µM, hits give high values
The whole screen tested about 340,000 compounds, of which about 1,000 (0.29%) were called active. Only a sample is shown. Results with a measured potency or affinity are listed apart.
# inhibition annotations

MOLECULE	inhibition
CC12CCC(=O)N1C(C(=O)Nc1nccs1)CS2 (stereo unspecified)	-5.93% (inactive)
COC(CNC(=O)c1coc2nc3ccccc3nc12)OC	-7.62% (inactive)
O=C1c2ccccc2C(=O)N1N(c1ccccc1)c1ccccc1	0% (inactive)

Could you now consider this next molecule?
Ask: Return value of inhibition for input O=C(CN1C(=O)COc2ccc(Cl)cc21)N1CCc2ccccc21 , no commentary.
Result: -2.43% (inactive)

----------
EXPERIMENTAL SYSTEM: Genome polyprotein (Dengue virus type 2 (strain 16681-PDK53))
ASSAY NOTES: flavivirus cap methylation enzyme inhibition – biochemical, confirmation dose response, primary screen (AID 588689)
EXPERIMENTAL CONDITIONS: Dengue-2 NS5 methyltransferase capping enzyme assay, at 25 µM, hits give high values
Out of some 340,000 compounds screened, about 1,000 (0.29%) were called active. Not all results are given here. Entries with a potency or affinity are not part of this list.
MEASURED ENDPOINT: inhibition

COMPOUND	EXPERIMENTAL SYSTEM	inhibition
C#CC[N+](C)(C)CC#Cc1ccccc1	Genome polyprotein (Dengue virus type 2 (strain 16681-PDK53))	-1.48% (inactive)
O=C(NC(=S)Nc1ccccc1Br)C1CC1	Genome polyprotein (Dengue virus type 2 (strain 16681-PDK53))	7.22% (inactive)
CC(=O)Nc1ccc2c(O)cc(S(=O)(=O)O)cc2c1	Genome polyprotein (Dengue virus type 2 (strain 16681-PDK53))	-7.72% (inactive)

Ask: Return value of inhibition for input Cc1[nH][nH]c(=O)c1[C@@H](c1ccccc1[N+](=O)[O-])C(C#N)C#N , no commentary.
Result: 14.4% (inactive)

Ask: Return value of inhibition for input CNC(=O)NC(=O)CSc1nc2cc(C(=O)OC)ccc2c(=O)n1-c1ccccc1 , no commentary.
Result: -2.77% (inactive)

Ask: Return value of inhibition for input Nc1cc(S(=O)(=O)O)cc2ccc(S(=O)(=O)O)cc12 , no commentary.
Result: 7.17% (inactive)

Ask: Return value of inhibition for input COc1cccc(/C=C2\CCc3ccccc3C2=O)c1 , no commentary.
Result: 1.96% (inactive)

Ask: Return value of inhibition for input Cn1c2cc(C#N)sc2c2cnn(Cc3ccc(F)cc3)c(=O)c21 , no commentary.
Result: -9.27% (inactive)

----------
EXPERIMENTAL SYSTEM: Genome polyprotein (Dengue virus type 2 (strain 16681-PDK53)) (UniProt P29991)
ASSAY NOTES: flavivirus cap methylation enzyme inhibition – biochemical, confirmation dose response, primary screen (AID 588689)
EXPERIMENTAL CONDITIONS: Dengue-2 NS5 methyltransferase capping enzyme assay, at 25 µM, hits give high values
About 1,000 (0.29%) of roughly 340,000 compounds were called active. Not all results are given here. Entries with a potency or affinity are not part of this list.
MEASURED ENDPOINT: inhibition (%)
Numbers only; they are read as %.

Reference set (5 entries):
MOLECULE	EXPERIMENTAL SYSTEM	UNIT ABBREV	inhibition
N/C(=N\S(=O)(=O)c1ccccc1)c1ccc([N+](=O)[O-])cc1	Genome polyprotein (Dengue virus type 2 (strain 16681-PDK53)) (UniProt P29991)	%	-9.13
O=C1/C(=C/c2ccc(O)c(O)c2)SC(=S)N1Nc1ccccc1	Genome polyprotein (Dengue virus type 2 (strain 16681-PDK53)) (UniProt P29991)	%	-21.8
O=C(Cc1ccccc1)NN1C(=O)/C(=C/c2ccc(C(=O)O)cc2)SC1=S	Genome polyprotein (Dengue virus type 2 (strain 16681-PDK53)) (UniProt P29991)	%	27
Cc1cc(C)c(NC(=O)CNC(=O)COC(=O)/C=C/c2cccs2)c(C)c1	Genome polyprotein (Dengue virus type 2 (strain 16681-PDK53)) (UniProt P29991)	%	-7.3
Cc1ccc(/C=C/c2nc3sc(C(=O)O)c(C)c3c(=O)[nH]2)cc1[N+](=O)[O-]	Genome polyprotein (Dengue virus type 2 (strain 16681-PDK53)) (UniProt P29991)	%	-2.44

Ask: Return value of inhibition for input CC1CCCN(CCC(=O)Nc2ccc3c(c2)CCC3)C1 (stereo not given) , no commentary.
Result: -0.41

Ask: Return value of inhibition for input CCc1cccc2c1NC(=O)C21N2CCCC2C(C(=O)c2ccc3ccccc3c2)C12C(=O)Nc1ccccc12 (stereo not given) , no commentary.
Result: -10.4

Ask: Return value of inhibition for input CCN(Cc1ccccc1)C(=O)CCNS(=O)(=O)c1cc(Br)cnc1N , no commentary.
Result: 2.62

Ask: Return value of inhibition for input O=C(O)c1ccc(/C=C2\SC(=S)N(NC(=O)c3ccccc3)C2=O)cc1 , no commentary.
Result: 8.49

Ask: Return value of inhibition for input CCCc1cc(C(=O)Cc2ccc(C(=O)OCC)o2)c(O)cc1O , no commentary.
Result: -23.9
